Reported IC50 values are given for each entry in this list.
molecular target: C-X-C chemokine receptor type 3 (Mus musculus, UniProt O88410); assay: Antagonist activity at mouse recombinant CXCR3 expressed in human U2OS cells
Sequence (O88410 whole entry): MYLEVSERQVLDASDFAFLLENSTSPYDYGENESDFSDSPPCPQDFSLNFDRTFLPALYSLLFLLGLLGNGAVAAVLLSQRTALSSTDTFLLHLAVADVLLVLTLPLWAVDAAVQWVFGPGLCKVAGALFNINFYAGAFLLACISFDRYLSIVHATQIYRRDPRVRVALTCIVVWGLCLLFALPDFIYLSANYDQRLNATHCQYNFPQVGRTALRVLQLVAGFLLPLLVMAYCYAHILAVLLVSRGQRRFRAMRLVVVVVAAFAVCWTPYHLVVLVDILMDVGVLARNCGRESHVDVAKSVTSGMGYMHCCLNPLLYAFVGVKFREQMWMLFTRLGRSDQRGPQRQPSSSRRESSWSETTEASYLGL

Compound | IC50
C[C@H]1CN(S(=O)(=O)C[C@]23CC[C@H](CC2O)C3(C)C)CCN1c1ccc(C(F)(F)F)cn1 (stereo partly drawn) | 631 nM
C[C@H]1CN(S(=O)(=O)C[C@]23CC[C@H](CC24OCCO4)C3(C)C)CCN1c1ncc(C(F)(F)F)cc1F | 1580 nM
C[C@H]1CN(S(=O)(=O)C[C@]23CC[C@H](CC2=O)C3(C)C)CCN1c1ccc(C(F)(F)F)cn1 | 2510 nM
CC1(C)[C@@H]2CC[C@@]1(CS(=O)(=O)N1CCN(c3ccc(C(F)(F)F)cn3)CC1)C(=O)C2 | 1260 nM
C[C@H]1CN(S(=O)(=O)C[C@]23CC[C@H](CC2=O)C3(C)C)CCN1c1ncc(C(F)(F)F)cc1F | 501 nM
CC1(C)[C@@H]2CC[C@@]1(CS(=O)(=O)N1CCN(c3ncc(C(F)(F)F)cc3F)[C@H](CO)C1)C(=O)C2 | 6310 nM
C[C@H]1CN(S(=O)(=O)C[C@]23CC[C@H](CC2O)C3(C)C)CCN1c1ncc(C(F)(F)F)cc1F (stereo partly drawn) | 158 nM
CC1(C)[C@@H]2CC[C@@]1(CS(=O)(=O)N1CCN(c3ncc(C(F)(F)F)cc3F)CC1)C(=O)C2 | 794 nM
C[C@H]1CN(S(=O)(=O)C[C@]23CC[C@H](CC2=O)C3(C)C)CCN1c1ncc(C(F)(F)F)cn1 | 1000 nM
C[C@H]1CN(S(=O)(=O)C[C@]23CC[C@H](C[C@H]2O)C3(C)C)CCN1c1ncc(C(F)(F)F)cc1F | 1580 nM
C[C@H]1CN(S(=O)(=O)C[C@]23CC[C@H](C[C@@H]2O)C3(C)C)CCN1c1ccc(C(F)(F)F)cn1 | 200 nM
C[C@H]1CN(S(=O)(=O)C[C@]23CC[C@H](C[C@H]2O)C3(C)C)CCN1c1ccc(C(F)(F)F)cn1 | 631 nM
C[C@H]1CN(S(=O)(=O)C[C@]23CC[C@H](C[C@@H]2O)C3(C)C)CCN1c1ncc(C(F)(F)F)cc1F | 200 nM

---

assay: Oral bioavailability in rat at 2.0 mg/kg; format: ADME, organism-based; settings: in vivo

Mol | bioavailability
C[C@H]1CN(S(=O)(=O)C[C@]23CC[C@H](CC2=O)C3(C)C)CCN1c1ncc(C(F)(F)F)cc1F | 8%

---

target: Cytochrome P450 2C19 (Homo sapiens, UniProt P33261)
Sequence (P33261 whole entry): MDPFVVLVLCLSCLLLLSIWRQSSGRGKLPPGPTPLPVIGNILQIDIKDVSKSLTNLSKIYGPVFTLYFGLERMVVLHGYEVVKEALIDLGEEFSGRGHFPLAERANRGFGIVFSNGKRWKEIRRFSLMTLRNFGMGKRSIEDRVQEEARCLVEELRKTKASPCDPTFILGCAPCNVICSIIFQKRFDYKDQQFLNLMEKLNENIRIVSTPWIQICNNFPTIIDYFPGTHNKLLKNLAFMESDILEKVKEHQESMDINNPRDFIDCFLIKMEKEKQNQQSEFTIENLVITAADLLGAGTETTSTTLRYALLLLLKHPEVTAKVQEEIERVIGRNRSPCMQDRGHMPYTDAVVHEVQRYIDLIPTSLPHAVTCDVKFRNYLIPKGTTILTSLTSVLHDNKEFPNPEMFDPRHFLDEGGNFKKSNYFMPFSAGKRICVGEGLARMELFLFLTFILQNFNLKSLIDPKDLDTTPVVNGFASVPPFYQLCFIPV

Mol | Unit Info | IC50
C[C@H]1CN(S(=O)(=O)C[C@]23CC[C@H](C[C@@H]2O)C3(C)C)CCN1c1ncc(C(F)(F)F)cc1F | µM | 4

---

Molecular target: C-X-C chemokine receptor type 3 (Homo sapiens, UniProt P49682)
Sequence (P49682 whole entry): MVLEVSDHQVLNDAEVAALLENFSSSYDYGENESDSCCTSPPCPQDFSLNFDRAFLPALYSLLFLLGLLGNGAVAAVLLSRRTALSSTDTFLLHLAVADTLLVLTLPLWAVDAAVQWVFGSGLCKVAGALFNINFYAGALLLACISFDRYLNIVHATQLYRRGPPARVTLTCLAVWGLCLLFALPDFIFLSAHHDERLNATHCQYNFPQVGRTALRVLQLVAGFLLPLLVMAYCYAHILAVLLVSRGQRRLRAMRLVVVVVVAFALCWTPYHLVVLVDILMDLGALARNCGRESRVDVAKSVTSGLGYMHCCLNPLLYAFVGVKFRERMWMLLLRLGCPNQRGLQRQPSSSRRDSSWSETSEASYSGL
Assay: Antagonist activity at human recombinant CXCR3 receptor expressed in CHO-K1 cells assessed as human IP10-induced calcium flux by FLIPR assay
Measurement Name: log10(IC50) (log10 of the value in nM)

Molecule | log10(IC50)
CCNC(=O)NC1C[C@H]2CC[C@]1(CS(=O)(=O)N1CCN(c3ccc(C(F)(F)F)cn3)CC1)C2(C)C (stereo partly specified) | 2.90
C[C@H]1CN(S(=O)(=O)C[C@]23CC[C@H](C[C@@H]2O)C3(C)C)CCN1c1ccc(C(F)(F)F)cn1 | 1.50
CC1(C)[C@@H]2CC[C@@]1(CS(=O)(=O)N1CCN(c3ccc(C(F)(F)F)cc3F)CC1)C(=O)C2 | 3.30
CC1(C)[C@@H]2CC[C@@]1(CS(=O)(=O)N1CCN(c3ncc(C(F)(F)F)cc3[N+](=O)[O-])CC1)C(=O)C2 | 3.50
CC1(C)[C@@H]2CC[C@@]1(CS(=O)(=O)N1CCCN(c3ccc(C(F)(F)F)cn3)CC1)C(=O)C2 | 3.80
C[C@H]1CN(S(=O)(=O)C[C@]23CC[C@H](CC2=O)C3(C)C)CCN1c1ncc(C(F)(F)F)cn1 | 2.10
CC1(C)[C@@H]2CC[C@@]1(CS(=O)(=O)N1CCN(c3ccc(C(F)(F)F)cn3)CC1)C(N)C2 (stereo partly specified) | 2.90
CC1(C)[C@@H]2CC[C@@]1(CS(=O)(=O)N1CCN(c3ccc(C(F)(F)F)c(Cl)n3)CC1)C(=O)C2 | 2.40
CC1(C)[C@@H]2CC[C@]1(CS(=O)(=O)N1CCN(c3ccc(C(F)(F)F)cn3)CC1)C(=O)C2 | 3.20
CCC1CN(S(=O)(=O)C[C@]23CC[C@H](CC2=O)C3(C)C)CCN1c1ccc(C(F)(F)F)cn1 (stereo partly specified) | 2.80

---

molecular target: C-X-C chemokine receptor type 3 (Homo sapiens, UniProt P49682); test: Antagonist activity at human recombinant CXCR3 receptor expressed in CHO-K1 cells assessed as human IP10-induced calcium flux by FLIPR assay
Checkbox rule: IC50 lower than 300 nM = Satisfied; IC50 not lower than 300 nM = Not satisfied.

Compound | Target Under Test | Class Name
CC1(C)[C@@H]2CC[C@@]1(CS(=O)(=O)N1C[C@@H]3C[C@H]1CN3c1ccc(C(F)(F)F)cn1)C(=O)C2 | C-X-C chemokine receptor type 3 (Homo sapiens, UniProt P49682) | Not satisfied
CC1(C)[C@@H]2CC[C@@]1(CS(=O)(=O)N1CCN(c3ncc(Br)cn3)CC1)C(=O)C2 | C-X-C chemokine receptor type 3 (Homo sapiens, UniProt P49682) | Not satisfied
C[C@H]1CN(S(=O)(=O)C[C@]23CC[C@H](C[C@@H]2O)C3(C)C)CCN1c1ncc(C(F)(F)F)cc1F | C-X-C chemokine receptor type 3 (Homo sapiens, UniProt P49682) | Satisfied
CC1(C)[C@@H]2CC[C@@]1(CS(=O)(=O)N1CCN(c3ccc(C(F)(F)F)cn3)CC1)C1(C2)OCCO1 | C-X-C chemokine receptor type 3 (Homo sapiens, UniProt P49682) | Satisfied
CC(=O)NC1C[C@H]2CC[C@]1(CS(=O)(=O)N1CCN(c3ccc(C(F)(F)F)cn3)CC1)C2(C)C (stereo partly specified) | C-X-C chemokine receptor type 3 (Homo sapiens, UniProt P49682) | Not satisfied
CC1(C)[C@@H]2CC[C@@]1(CS(=O)(=O)N1CCN(c3ccc(C(F)(F)F)cn3)C(CO)C1)C(=O)C2 (stereo partly specified) | C-X-C chemokine receptor type 3 (Homo sapiens, UniProt P49682) | Not satisfied
C[C@H]1CN(S(=O)(=O)C[C@]23CC[C@H](CC2O)C3(C)C)CCN1c1ncc(C(F)(F)F)cc1F (stereo partly specified) | C-X-C chemokine receptor type 3 (Homo sapiens, UniProt P49682) | Satisfied
CC1(C)[C@@H]2CC[C@@]1(CS(=O)(=O)N1CCN(c3ccc(C(F)(F)F)cc3)CC1)C(=O)C2 | C-X-C chemokine receptor type 3 (Homo sapiens, UniProt P49682) | Not satisfied
CC1(C)[C@@H]2CC[C@@]1(CS(=O)(=O)N1CCN(c3ccc(C(F)(F)F)nn3)CC1)C(=O)C2 | C-X-C chemokine receptor type 3 (Homo sapiens, UniProt P49682) | Not satisfied
CC1(C)[C@@H]2CC[C@@]1(CS(=O)(=O)N1CCN(c3ccc(C(F)(F)F)cn3)CC1)C(NS(C)(=O)=O)C2 (stereo partly specified) | C-X-C chemokine receptor type 3 (Homo sapiens, UniProt P49682) | Not satisfied
CC1CN(S(=O)(=O)C[C@]23CC[C@H](CC2=O)C3(C)C)CCN1c1ccc(C(F)(F)F)cn1 (stereo partly specified) | C-X-C chemokine receptor type 3 (Homo sapiens, UniProt P49682) | Not satisfied
C[C@H]1CN(S(=O)(=O)C[C@]23CC[C@H](CC2O)C3(C)C)CCN1c1ccc(C(F)(F)F)cn1 (stereo partly specified) | C-X-C chemokine receptor type 3 (Homo sapiens, UniProt P49682) | Satisfied
CC1(C)[C@@H]2CC[C@@]1(CS(=O)(=O)N1CCN(c3ccc(C(F)(F)F)cn3)CC1)C(F)C2 (stereo partly specified) | C-X-C chemokine receptor type 3 (Homo sapiens, UniProt P49682) | Not satisfied
CC1(C)[C@@H]2CC[C@@]1(CS(=O)(=O)N1CCN(c3ncc(C(F)(F)F)cc3F)[C@H](CO)C1)C(=O)C2 | C-X-C chemokine receptor type 3 (Homo sapiens, UniProt P49682) | Not satisfied
C[C@@H]1CN(S(=O)(=O)C[C@]23CC[C@H](CC2=O)C3(C)C)CCN1c1ccc(C(F)(F)F)cn1 | C-X-C chemokine receptor type 3 (Homo sapiens, UniProt P49682) | Not satisfied
C[C@H]1CN(S(=O)(=O)C[C@]23CC[C@H](CC2=O)C3(C)C)CCN1c1ncc(C(F)(F)F)cc1F | C-X-C chemokine receptor type 3 (Homo sapiens, UniProt P49682) | Satisfied
